The measured values listed here are drawn from patent US7601751B2.

# experimentalSystem: BACE1 enzyme (Homo sapiens, UniProt P56817)
# Construct: The HEK293-9B.A1 cell line, which overexpresses the BACE1 enzyme, was derived from HEK293 cells; endogenous in cells; washed membrane pellet / cell homogenate
# Sequence (P56817 46-501): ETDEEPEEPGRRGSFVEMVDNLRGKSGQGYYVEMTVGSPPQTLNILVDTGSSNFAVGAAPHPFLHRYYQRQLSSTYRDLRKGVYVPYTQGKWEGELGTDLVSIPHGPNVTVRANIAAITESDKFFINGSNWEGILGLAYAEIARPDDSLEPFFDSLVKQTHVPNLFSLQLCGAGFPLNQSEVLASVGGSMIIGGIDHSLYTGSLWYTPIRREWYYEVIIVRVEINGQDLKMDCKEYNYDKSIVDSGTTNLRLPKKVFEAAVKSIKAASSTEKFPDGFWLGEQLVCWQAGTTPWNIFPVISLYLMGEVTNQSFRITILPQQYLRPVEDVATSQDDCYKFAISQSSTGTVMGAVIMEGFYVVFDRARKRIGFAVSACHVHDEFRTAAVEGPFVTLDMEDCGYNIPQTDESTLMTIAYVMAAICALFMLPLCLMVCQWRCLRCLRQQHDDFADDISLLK
# protocol: Radioligand displacement assay with a radiolabeled BACE inhibitor on HEK293-9B.A1 cell homogenate
# conditionsUsed: HEK293-9B.A1 cell homogenate overexpressing BACE1, 1 nM radioligand, pH 5.0, 1.5 hr at 25° C., read-out: Activity Rating (activity based on IC50 values)
pIC50: −log10 of the molar value.
Please provide measured pIC50 for the entries that follow.

Study these solved cases before continuing.
compound	result
CC(=O)Nc1c(Cl)cc(CN/C(N)=N/C(=O)Cc2c[nH]c3ccc(Br)cc23)cc1Cl	> 7.00
Cn1cc(CC(=O)/N=C(\N)NCc2cc(Cl)c(N)c(Cl)c2)c2ccccc21	< 6.00
CC(=O)Nc1c(Cl)cc(CN/C(N)=N/C(=O)Cc2c[nH]c3ccc(O)cc23)cc1Cl	6.00 to 7.00
COc1ccc2[nH]cc(CC(=O)/N=C(\N)NCc3cc(Cl)cc(Cl)c3)c2c1	< 6.00

Give pIC50 for all compounds that follow.
1. CC(=O)Nc1c(Cl)cc(CN/C(N)=N/C(=O)Cc2c(C)[nH]c3ccccc23)cc1Cl
2. CN1CCN(c2ccc(CN/C(N)=N/C(=O)Cc3c[nH]c4ccc(Br)cc34)cc2Cl)CC1
3. CC(=O)Nc1c(Cl)cc(CN/C(N)=N/C(=O)Cc2c[nH]c3cc(F)ccc23)cc1Cl
4. CC(=O)Nc1c(Cl)cc(CN/C(N)=N/C(=O)Cc2c[nH]c3cc(OCc4ccccc4)ccc23)cc1Cl
5. CN1CCN(c2ccc(CN/C(N)=N/C(=O)Cc3c[nH]c4ccc(Br)cc34)cc2)CC1
6. N/C(=N\C(=O)Cc1c[nH]c2ccc(Br)cc12)NCc1cc(Cl)c(N)c(Cl)c1
7. CC(=O)Nc1c(Cl)cc(CN/C(N)=N/C(=O)Cc2c[nH]c3cc(Br)ccc23)cc1Cl

1: 6.00 to 7.00; 2: < 6.00; 3: 6.00 to 7.00; 4: 6.00 to 7.00; 5: < 6.00; 6: < 6.00; 7: 6.00 to 7.00

Please supply pIC50 for each of the following items, keeping them in order.
1. CC(=O)Nc1c(Cl)cc(CN/C(N)=N/C(=O)Cc2c[nH]c3ccc(OCc4ccccc4)cc23)cc1Cl
2. CC(=O)Nc1c(Cl)cc(CN/C(N)=N/C(=O)Cc2c(C#N)[nH]c3ccc(Br)cc23)cc1Cl
3. COc1ccc2[nH]cc(CC(=O)/N=C(\N)NCc3cc(Cl)c(N)c(Cl)c3)c2c1
4. CC(=O)Nc1c(Cl)cc(CN/C(N)=N/C(=O)Cc2c(C(=O)NC(C)(C)C)[nH]c3ccc(Br)cc23)cc1Cl

1: < 6.00; 2: > 7.00; 3: < 6.00; 4: > 7.00
